biological target: Hsp90 in C. albicans (SC5314) lysate (Candida albicans); construct: endogenous in cells; host or cells: C. albicans SC5314 whole-cell lysate; assay: biochemical; assay type: binding; conditions: SC5314 lysate, not normalized, oxime panel experiment 220817; read-out: EC50
Sequence (P46598 whole entry): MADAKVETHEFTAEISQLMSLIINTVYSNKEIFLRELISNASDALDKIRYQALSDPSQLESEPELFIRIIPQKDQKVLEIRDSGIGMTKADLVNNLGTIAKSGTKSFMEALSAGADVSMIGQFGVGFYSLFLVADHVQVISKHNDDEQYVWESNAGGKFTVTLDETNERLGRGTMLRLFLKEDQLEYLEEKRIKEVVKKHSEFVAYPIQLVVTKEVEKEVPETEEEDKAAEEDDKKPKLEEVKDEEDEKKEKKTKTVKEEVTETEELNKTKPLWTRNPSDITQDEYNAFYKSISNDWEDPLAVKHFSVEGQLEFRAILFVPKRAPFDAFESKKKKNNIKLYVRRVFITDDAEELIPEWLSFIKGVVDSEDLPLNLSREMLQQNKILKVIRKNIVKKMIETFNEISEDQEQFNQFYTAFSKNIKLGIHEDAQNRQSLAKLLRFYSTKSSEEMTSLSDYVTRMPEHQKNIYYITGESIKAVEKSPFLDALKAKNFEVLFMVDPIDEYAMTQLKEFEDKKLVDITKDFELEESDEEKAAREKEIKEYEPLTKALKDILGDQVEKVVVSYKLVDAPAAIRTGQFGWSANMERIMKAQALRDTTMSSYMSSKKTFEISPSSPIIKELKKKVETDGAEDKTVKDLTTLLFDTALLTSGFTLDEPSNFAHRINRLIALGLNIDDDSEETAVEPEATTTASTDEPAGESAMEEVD
Measured attribute: EC50 (nM)

CC1CC2OC2C=CC=CC(=NOCc2ccccc2)Cc2c(Cl)c(O)cc(O)c2C(=O)O1 (mixture of isomers) : 392
CC1CC2OC2C=CC=CC(=NOCc2cccc(F)c2)Cc2c(Cl)c(O)cc(O)c2C(=O)O1 (mixture of isomers) : 360
CCON=C1/C=C/C=C\[C@H]2O[C@H]2C[C@@H](C)OC(=O)c2c(O)cc(O)c(Cl)c2C1 : 5.36
COc1ccccc1CON=C1C=CC=CC2OC2CC(C)OC(=O)c2c(O)cc(O)c(Cl)c2C1 (mixture of isomers) : 417

###

molecular target: Hsp90 in C. albicans (SC5314) lysate (Candida albicans); construct: endogenous in cells; host or cells: C. albicans SC5314 whole-cell lysate; experiment: biochemical; type: binding; conditions: SC5314 lysate, 111.111 nM compound, raw
Measured attribute: FP signal

CCON=C1/C=C/C=C\[C@H]2O[C@H]2C[C@@H](C)OC(=O)c2c(O)cc(O)c(Cl)c2C1 : 39
COc1ccc(CON=C2C=CC=CC3OC3CC(C)OC(=O)c3c(O)cc(O)cc3C2)cc1 (stereo not shown) : 182
COc1ccccc1CON=C1C=CC=CC2OC2CC(C)OC(=O)c2c(O)cc(O)c(Cl)c2C1 (mixture of isomers) : 176
CC1CC2OC2C=CC=CC(=NOCCN2CCCC2=O)Cc2c(Cl)c(O)cc(O)c2C(=O)O1 (stereo not shown) [KF58333, reference compound] : 38
Cc1ccc(CON=C2C=CC=CC3OC3CC(C)OC(=O)c3c(O)cc(O)c(Cl)c3C2)cc1 (mixture of isomers) : 197
CC1CC2OC2C=CC=CC(=NOCc2ccccc2)Cc2c(Cl)c(O)cc(O)c2C(=O)O1 (mixture of isomers) : 183
CC1CC2OC2C=CC=CC(=NOCc2cccc(F)c2)Cc2c(Cl)c(O)cc(O)c2C(=O)O1 (mixture of isomers) : 162

###

target: Hsp90 in C. albicans (SC5314) lysate (Candida albicans); construct: endogenous in cells; host or cells: C. albicans SC5314 whole-cell lysate; experiment: biochemical; type: binding; settings: ratio of GdA-relative EC50 ratios, HepG2 over SC5314
Measured attribute: HepG2/SC5314

CCON=C1/C=C/C=C\[C@H]2O[C@H]2C[C@@H](C)OC(=O)c2c(O)cc(O)c(Cl)c2C1 : 1.134
CC1CC2OC2C=CC=CC(=NOCCN2CCCC2=O)Cc2c(Cl)c(O)cc(O)c2C(=O)O1 (stereo not drawn) [KF58333, reference compound] : 1.165
C[C@@H]1C[C@@H]2O[C@@H]2/C=C\C=C\C(=NOCc2ccccc2Cl)Cc2c(Cl)c(O)cc(O)c2C(=O)O1 : 2.89
COc1ccc(CON=C2C=CC=CC3OC3CC(C)OC(=O)c3c(O)cc(O)cc3C2)cc1 (stereo not drawn) : 4.5595
COc1ccc(CON=C2C=CC=CC3OC3CC(C)OC(=O)c3c(O)cc(O)c(Cl)c3C2)cc1 (mixture of isomers) : 1.707
Cc1ccc(CON=C2C=CC=CC3OC3CC(C)OC(=O)c3c(O)cc(O)c(Cl)c3C2)cc1 (mixture of isomers) : 1.973

Sourced from paper PMC6345968
